system_under_test: UniProtKB Q9P2K8
Sequence (Q9P2K8 whole entry): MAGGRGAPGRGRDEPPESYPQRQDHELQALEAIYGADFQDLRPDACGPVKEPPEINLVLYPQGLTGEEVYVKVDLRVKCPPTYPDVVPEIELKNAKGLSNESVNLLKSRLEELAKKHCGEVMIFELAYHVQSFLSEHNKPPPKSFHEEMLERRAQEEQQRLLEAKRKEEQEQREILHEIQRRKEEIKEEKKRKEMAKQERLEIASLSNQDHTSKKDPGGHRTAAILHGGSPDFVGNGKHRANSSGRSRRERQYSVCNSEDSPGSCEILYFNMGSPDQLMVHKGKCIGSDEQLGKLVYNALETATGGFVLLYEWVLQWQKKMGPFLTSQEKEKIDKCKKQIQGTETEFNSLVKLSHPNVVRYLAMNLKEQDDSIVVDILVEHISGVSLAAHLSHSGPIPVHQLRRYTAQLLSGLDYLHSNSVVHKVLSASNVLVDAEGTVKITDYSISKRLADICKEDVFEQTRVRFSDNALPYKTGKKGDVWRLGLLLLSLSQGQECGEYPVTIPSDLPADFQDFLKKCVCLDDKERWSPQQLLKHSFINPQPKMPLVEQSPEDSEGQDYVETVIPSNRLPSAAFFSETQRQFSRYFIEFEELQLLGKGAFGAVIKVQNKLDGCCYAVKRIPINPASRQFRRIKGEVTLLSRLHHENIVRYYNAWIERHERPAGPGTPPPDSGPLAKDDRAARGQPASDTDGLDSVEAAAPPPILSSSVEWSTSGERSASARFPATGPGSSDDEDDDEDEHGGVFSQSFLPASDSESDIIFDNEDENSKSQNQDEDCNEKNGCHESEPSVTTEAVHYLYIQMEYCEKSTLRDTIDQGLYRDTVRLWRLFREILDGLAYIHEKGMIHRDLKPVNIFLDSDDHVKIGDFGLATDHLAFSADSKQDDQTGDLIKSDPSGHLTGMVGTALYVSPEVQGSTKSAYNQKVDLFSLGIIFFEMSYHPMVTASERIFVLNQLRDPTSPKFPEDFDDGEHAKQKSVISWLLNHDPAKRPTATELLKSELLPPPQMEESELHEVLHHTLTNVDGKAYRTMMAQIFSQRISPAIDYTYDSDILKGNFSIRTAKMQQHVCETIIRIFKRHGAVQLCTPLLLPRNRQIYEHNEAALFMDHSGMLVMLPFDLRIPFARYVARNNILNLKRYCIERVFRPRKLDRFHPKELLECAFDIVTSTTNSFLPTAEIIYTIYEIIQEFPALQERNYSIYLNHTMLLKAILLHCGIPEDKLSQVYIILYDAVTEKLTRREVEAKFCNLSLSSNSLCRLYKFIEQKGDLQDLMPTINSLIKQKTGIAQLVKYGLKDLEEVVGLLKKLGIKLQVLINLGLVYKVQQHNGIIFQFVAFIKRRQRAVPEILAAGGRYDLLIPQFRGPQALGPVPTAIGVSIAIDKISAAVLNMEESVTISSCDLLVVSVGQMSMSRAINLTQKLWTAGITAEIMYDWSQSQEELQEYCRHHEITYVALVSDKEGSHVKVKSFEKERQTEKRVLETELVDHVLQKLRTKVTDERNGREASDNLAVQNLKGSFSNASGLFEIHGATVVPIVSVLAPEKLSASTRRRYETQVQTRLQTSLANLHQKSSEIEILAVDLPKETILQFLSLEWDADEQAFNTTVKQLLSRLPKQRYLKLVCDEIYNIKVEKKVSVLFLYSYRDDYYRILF
procedure_text: Inhibition of GCN2 in human PC3 cell lysates at 30 uM using desthiobiotin-tagged ATP probe AX9989 followed by trypsinization by LC/MS analysis
test_parameters: PC-3
Recorded inhibition by entry

Some entries whose results are on file:
[
  {
    "test_smiles": "c1ccc(CCNc2nc3ccccc3n3ccnc23)cc1",
    "system_under_test": "UniProtKB Q9P2K8",
    "inhibition": "< 35%"
  },
  {
    "test_smiles": "O[C@H]1CC[C@H](Nc2nc3ccccc3n3ccnc23)CC1",
    "system_under_test": "UniProtKB Q9P2K8",
    "inhibition": "36.9%"
  },
  {
    "test_smiles": "c1ccc(CNc2nc3ccccc3n3ccnc23)cc1",
    "system_under_test": "UniProtKB Q9P2K8",
    "inhibition": "< 35%"
  }
]

Memo: `c1ccc2c(c1)nc(NC1CCCCC1)c1nccn12` , reported inhibition: < 35%

---

system_under_test: Ribosomal protein S6 kinase beta-2 (Homo sapiens) (UniProt Q9UBS0)
Sequence (Q9UBS0 whole entry): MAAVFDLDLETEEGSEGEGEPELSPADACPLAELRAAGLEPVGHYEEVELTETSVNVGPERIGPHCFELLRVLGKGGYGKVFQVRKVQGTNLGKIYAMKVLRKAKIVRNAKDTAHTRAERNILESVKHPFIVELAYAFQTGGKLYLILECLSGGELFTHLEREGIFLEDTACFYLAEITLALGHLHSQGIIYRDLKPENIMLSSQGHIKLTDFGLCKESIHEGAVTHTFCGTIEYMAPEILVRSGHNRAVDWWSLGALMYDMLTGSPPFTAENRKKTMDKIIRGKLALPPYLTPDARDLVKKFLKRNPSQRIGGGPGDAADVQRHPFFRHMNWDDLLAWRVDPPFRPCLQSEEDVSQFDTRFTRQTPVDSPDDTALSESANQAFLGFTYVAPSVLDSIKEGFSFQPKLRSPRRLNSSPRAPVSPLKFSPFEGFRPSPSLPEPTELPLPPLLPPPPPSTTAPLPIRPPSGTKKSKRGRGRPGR
procedure_text: Inhibition of p70S6Kbeta in human PC3 cell lysates at 10 uM using desthiobiotin-tagged ATP probe AX9989 followed by trypsinization by LC/MS analysis
test_parameters: PC-3
attribute_measured: inhibition

[
  {
    "test_smiles": "CC[C@@H](NC(=O)c1ccc2nc(N[C@H]3CC[C@H](O)CC3)c3nccn3c2c1)c1ccccc1",
    "inhibition": "< 35%"
  }
]

Record for `O=C(O)c1ccc2nc(N[C@H]3CC[C@H](O)CC3)c3nccn3c2c1` under target or system Ribosomal protein S6 kinase beta-2 (Homo sapiens) (UniProt Q9UBS0): inhibition reported as < 35%

Record for `CCC[C@@H](NC(=O)c1ccc2nc(N[C@H]3CC[C@H](O)CC3)c3nccn3c2c1)c1ccccc1` under target or system Ribosomal protein S6 kinase beta-2 (Homo sapiens) (UniProt Q9UBS0): inhibition reported as < 35%

---

system_under_test: PI4KA/PI4KAP2 (Homo sapiens) (UniProt P42356+A4QPH2)
procedure_text: Inhibition of PI4KA/PI4KAP2 in human PC3 cell lysates at 10 uM using desthiobiotin-tagged ATP probe AX9989 followed by trypsinization by LC/MS analysis
Assay type: protein-complex assay
test_parameters: PC-3
attribute_measured: inhibition

[
  {
    "test_smiles": "C[C@@H](NC(=O)c1ccc2nc(N[C@H]3CC[C@H](O)CC3)c3nccn3c2c1)c1ccccc1",
    "measured": "< 35%"
  },
  {
    "test_smiles": "O=C(O)c1ccc2nc(N[C@H]3CC[C@H](O)CC3)c3nccn3c2c1",
    "measured": "73.1%"
  }
]

Kindly consider the entry below.
Memo: `O=C(NC1(c2ccc(F)cc2)CC1)c1ccc2nc(N[C@H]3CC[C@H](O)CC3)c3nccn3c2c1` , reported inhibition: < 35%

---

system_under_test: Cyclin-dependent kinase 16 (Homo sapiens) (UniProt Q00536)
Sequence (Q00536 whole entry): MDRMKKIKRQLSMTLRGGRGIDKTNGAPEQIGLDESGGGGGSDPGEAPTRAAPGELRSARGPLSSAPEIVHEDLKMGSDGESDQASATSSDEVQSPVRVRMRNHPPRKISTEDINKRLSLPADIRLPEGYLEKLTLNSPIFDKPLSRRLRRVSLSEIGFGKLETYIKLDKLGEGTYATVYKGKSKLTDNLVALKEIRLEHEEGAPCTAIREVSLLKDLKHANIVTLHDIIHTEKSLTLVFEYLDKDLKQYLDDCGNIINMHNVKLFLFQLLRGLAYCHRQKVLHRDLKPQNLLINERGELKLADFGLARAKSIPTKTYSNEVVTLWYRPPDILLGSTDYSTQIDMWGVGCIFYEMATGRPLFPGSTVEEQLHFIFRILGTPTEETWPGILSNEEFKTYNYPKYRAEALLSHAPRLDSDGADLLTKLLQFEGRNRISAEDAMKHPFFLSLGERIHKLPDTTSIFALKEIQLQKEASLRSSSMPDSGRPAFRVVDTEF
procedure_text: Inhibition of PCTAIRE1 in human PC3 cell lysates at 30 uM using desthiobiotin-tagged ATP probe AX9989 followed by trypsinization by LC/MS analysis
test_parameters: PC-3
attribute_measured: inhibition

Some entries whose results are on file:
[
  {
    "test_smiles": "c1ccc2c(c1)nc(NC1CCCCC1)c1nccn12",
    "system_under_test": "Cyclin-dependent kinase 16 (Homo sapiens) (UniProt Q00536)",
    "measured": "< 35%"
  },
  {
    "test_smiles": "O[C@H]1CC[C@H](Nc2nc3ccccc3n3ccnc23)CC1",
    "system_under_test": "Cyclin-dependent kinase 16 (Homo sapiens) (UniProt Q00536)",
    "measured": "38.9%"
  },
  {
    "test_smiles": "c1ccc(CCNc2nc3ccccc3n3ccnc23)cc1",
    "system_under_test": "Cyclin-dependent kinase 16 (Homo sapiens) (UniProt Q00536)",
    "measured": "< 35%"
  }
]

Record for `c1ccc(CNc2nc3ccccc3n3ccnc23)cc1` under target or system Cyclin-dependent kinase 16 (Homo sapiens) (UniProt Q00536): inhibition reported as < 35%

---

Recorded inhibition by entry
system_under_test: Ephrin type-A receptor 7 (Homo sapiens)
procedure_text: Inhibition of EphA7 in human PC3 cell lysates at 10 uM using desthiobiotin-tagged ATP probe AX9989 followed by trypsinization by LC/MS analysis
test_parameters: PC-3

[
  {
    "test_smiles": "O=C(NC1(c2ccccc2)CCC1)c1ccc2nc(N[C@H]3CC[C@H](O)CC3)c3nccn3c2c1",
    "inhibition": "< 35%"
  },
  {
    "test_smiles": "C[C@H](NC(=O)c1ccc2nc(N[C@H]3CC[C@H](O)CC3)c3nccn3c2c1)c1ccccc1",
    "inhibition": "< 35%"
  }
]

Memo: `CC(C)(NC(=O)c1ccc2nc(N[C@H]3CC[C@H](O)CC3)c3nccn3c2c1)c1ccccc1` , reported inhibition: < 35%

---

system_under_test: Eukaryotic elongation factor 2 kinase (Homo sapiens)
procedure_text: Inhibition of eEF2K in human PC3 cell lysates at 10 uM using desthiobiotin-tagged ATP probe AX9989 followed by trypsinization by LC/MS analysis
test_parameters: PC-3
Recorded inhibition by entry

Some entries whose results are on file:
[
  {
    "test_smiles": "CCC[C@@H](NC(=O)c1ccc2nc(N[C@H]3CC[C@H](O)CC3)c3nccn3c2c1)c1ccccc1",
    "measured": "< 35%"
  },
  {
    "test_smiles": "CC[C@@H](NC(=O)c1ccc2nc(N[C@H]3CC[C@H](O)CC3)c3nccn3c2c1)c1ccccc1",
    "measured": "< 35%"
  }
]

Kindly consider the entry below.
Record for `O=C(NC1(c2ccccc2)CC1)c1ccc2nc(N[C@H]3CC[C@H](O)CC3)c3nccn3c2c1` under target or system Eukaryotic elongation factor 2 kinase (Homo sapiens): inhibition reported as < 35%

---

Recorded inhibition by entry
system_under_test: MAP/microtubule affinity-regulating kinase 4 (Homo sapiens)
procedure_text: Inhibition of MARK4 in human PC3 cell lysates at 10 uM using desthiobiotin-tagged ATP probe AX9989 followed by trypsinization by LC/MS analysis
test_parameters: PC-3

Some entries whose results are on file:
[
  {
    "test_smiles": "O=C(NC1(c2ccc(F)cc2)CC1)c1ccc2nc(N[C@H]3CC[C@H](O)CC3)c3nccn3c2c1",
    "inhibition": "< 35%"
  },
  {
    "test_smiles": "O=C(O)c1ccc2nc(N[C@H]3CC[C@H](O)CC3)c3nccn3c2c1",
    "inhibition": "< 35%"
  }
]

Kindly consider the entry below.
Record for `C[C@@H](NC(=O)c1ccc2nc(N[C@H]3CC[C@H](O)CC3)c3nccn3c2c1)c1ccccc1` under target or system MAP/microtubule affinity-regulating kinase 4 (Homo sapiens): inhibition reported as < 35%

---

Recorded inhibition by entry
system_under_test: Mitogen-activated protein kinase 14 (Homo sapiens)
procedure_text: Inhibition of p38alpha in human PC3 cell lysates at 10 uM using desthiobiotin-tagged ATP probe AX9989 followed by trypsinization by LC/MS analysis
test_parameters: PC-3

[
  {
    "test_smiles": "O=C(NC1(Cc2ccc(F)cc2)CC1)c1ccc2nc(N[C@H]3CC[C@H](O)CC3)c3nccn3c2c1",
    "inhibition": "< 35%"
  }
]

Memo: `O=C(O)c1ccc2nc(N[C@H]3CC[C@H](O)CC3)c3nccn3c2c1` , reported inhibition: < 35%

Memo: `CC[C@@H](NC(=O)c1ccc2nc(N[C@H]3CC[C@H](O)CC3)c3nccn3c2c1)c1ccccc1` , reported inhibition: < 35%

Memo: `O=C(NC1(c2ccccc2)CC1)c1ccc2nc(N[C@H]3CC[C@H](O)CC3)c3nccn3c2c1` , reported inhibition: < 35%

Memo: `O=C(NC1(c2ccccc2)CCC1)c1ccc2nc(N[C@H]3CC[C@H](O)CC3)c3nccn3c2c1` , reported inhibition: < 35%

Memo: `CCC[C@@H](NC(=O)c1ccc2nc(N[C@H]3CC[C@H](O)CC3)c3nccn3c2c1)c1ccccc1` , reported inhibition: < 35%

---

system_under_test: Casein kinase I delta/epsilon (Homo sapiens) (UniProt P48730+P49674)
Sequence (P48730 whole entry, looked up): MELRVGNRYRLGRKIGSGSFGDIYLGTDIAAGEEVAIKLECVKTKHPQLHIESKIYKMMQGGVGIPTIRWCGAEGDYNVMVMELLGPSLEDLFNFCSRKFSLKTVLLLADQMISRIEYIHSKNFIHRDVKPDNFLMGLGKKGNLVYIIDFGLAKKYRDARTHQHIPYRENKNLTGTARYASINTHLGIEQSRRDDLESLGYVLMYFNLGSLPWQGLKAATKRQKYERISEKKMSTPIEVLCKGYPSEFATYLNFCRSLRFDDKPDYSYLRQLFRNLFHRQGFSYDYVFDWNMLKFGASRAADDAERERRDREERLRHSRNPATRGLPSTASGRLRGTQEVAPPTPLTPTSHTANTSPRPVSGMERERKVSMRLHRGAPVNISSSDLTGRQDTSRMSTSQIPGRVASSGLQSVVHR
Sequence (P49674 whole entry, looked up): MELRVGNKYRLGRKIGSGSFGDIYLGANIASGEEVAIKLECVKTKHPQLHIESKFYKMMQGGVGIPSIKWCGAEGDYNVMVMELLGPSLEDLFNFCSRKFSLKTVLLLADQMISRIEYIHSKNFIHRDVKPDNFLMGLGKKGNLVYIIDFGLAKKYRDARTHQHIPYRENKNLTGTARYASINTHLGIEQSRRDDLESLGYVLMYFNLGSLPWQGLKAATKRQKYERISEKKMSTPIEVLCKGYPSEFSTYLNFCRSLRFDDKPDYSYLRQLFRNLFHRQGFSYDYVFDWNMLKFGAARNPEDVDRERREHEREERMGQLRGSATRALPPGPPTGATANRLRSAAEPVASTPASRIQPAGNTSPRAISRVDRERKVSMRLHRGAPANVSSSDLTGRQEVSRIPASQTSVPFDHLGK
procedure_text: Inhibition of CK1delta/CK1epsilon in human PC3 cell lysates at 10 uM using desthiobiotin-tagged ATP probe AX9989 followed by trypsinization by LC/MS analysis
Type: protein-complex assay
test_parameters: PC-3
attribute_measured: inhibition

Some entries whose results are on file:
[
  {
    "test_smiles": "CC[C@@H](NC(=O)c1ccc2nc(N[C@H]3CC[C@H](O)CC3)c3nccn3c2c1)c1ccccc1",
    "attribute_measured": "inhibition",
    "measured": "< 35%"
  },
  {
    "test_smiles": "O=C(N[C@H](CO)c1ccccc1)c1ccc2nc(N[C@H]3CC[C@H](O)CC3)c3nccn3c2c1",
    "attribute_measured": "inhibition",
    "measured": "< 35%"
  },
  {
    "test_smiles": "O=C(NC1(c2ccc(F)cc2)CC1)c1ccc2nc(N[C@H]3CC[C@H](O)CC3)c3nccn3c2c1",
    "attribute_measured": "inhibition",
    "measured": "44.3%"
  },
  {
    "test_smiles": "C[C@@H](NC(=O)c1ccc2nc(N[C@H]3CC[C@H](O)CC3)c3nccn3c2c1)c1ccccc1",
    "attribute_measured": "inhibition",
    "measured": "42.6%"
  }
]

Memo: `CC(C)(NC(=O)c1ccc2nc(N[C@H]3CC[C@H](O)CC3)c3nccn3c2c1)c1ccccc1` , reported inhibition: < 35%

Memo: `O=C(NC1(c2ccccc2)CCC1)c1ccc2nc(N[C@H]3CC[C@H](O)CC3)c3nccn3c2c1` , reported inhibition: < 35%

Memo: `O=C(NC1(Cc2ccc(F)cc2)CC1)c1ccc2nc(N[C@H]3CC[C@H](O)CC3)c3nccn3c2c1` , reported inhibition: < 35%

Memo: `CCC[C@@H](NC(=O)c1ccc2nc(N[C@H]3CC[C@H](O)CC3)c3nccn3c2c1)c1ccccc1` , reported inhibition: < 35%

Memo: `NC(=O)c1ccc2nc(N[C@H]3CC[C@H](O)CC3)c3nccn3c2c1` , reported inhibition: 91.3%
